- Tested on: 22Rv1 cells
- Assay notes: Trypan blue-based viability assay
- Type: cell-based, human
- Cond: Homo sapiens, 48 h of treatment, mean ± SD, read-out: IC50, trypan blue staining assay
Note that class boundaries on IC50 are lower = under 300 nM, middle = from 300 nM up to 500 nM, upper = 500 nM and over

>>> assigned_class("O=C1c2cc(Br)ccc2-[n+]2ccc3c([nH]c4c(Cl)cc(Cl)cc43)c21.[Cl-]")
"upper"
>>> assigned_class("O=C1c2ccc(Br)cc2-[n+]2ccc3c([nH]c4ccc(Br)cc43)c21.[Cl-]")
"upper"
>>> assigned_class("O=C1c2ccc(Br)cc2-[n+]2ccc3c([nH]c4ccccc43)c21")
"lower"
>>> assigned_class("O=C1c2ccccc2-[n+]2ccc3c([nH]c4ccc(I)cc43)c21.[Cl-]")
"lower"
>>> assigned_class("O=C1c2ccc(Br)cc2-[n+]2ccc3c([nH]c4cccc(Br)c43)c21.[Cl-]")
"lower"
>>> assigned_class("Cc1c[n+]2c(c3[nH]c4ccccc4c13)C(=O)c1ccccc1-2.[Cl-]")
"middle"
>>> assigned_class("O=C1c2cc(Br)ccc2-[n+]2ccc3c([nH]c4ccccc43)c21.[Cl-]")
"lower"
>>> assigned_class("O=C1c2ccccc2-[n+]2c(-c3ccccc3)cc3c([nH]c4ccccc43)c21.[Cl-]")
"lower"
>>> assigned_class("O=C1c2cc(Br)ccc2-[n+]2ccc3c([nH]c4c(Br)cc(Br)cc43)c21.[Cl-]")
"upper"
>>> assigned_class("O=C1c2cc(Br)ccc2-[n+]2ccc3c([nH]c4ccc(I)cc43)c21.[Cl-]")
"upper"
>>> assigned_class("CCc1c[n+]2c(c3[nH]c4ccccc4c13)C(=O)c1ccccc1-2.[Cl-]")
"middle"
>>> assigned_class("O=C1c2ccccc2-[n+]2ccc3c([nH]c4cc(Br)ccc43)c21")
"middle"
>>> assigned_class("O=C1c2ccccc2-[n+]2ccc3c([nH]c4ccccc43)c21")
"middle"
>>> assigned_class("O=C1c2cc(Br)ccc2-[n+]2ccc3c([nH]c4ccc(Cl)cc43)c21.[Cl-]")
"upper"
>>> assigned_class("O=C1c2cc(Br)ccc2-[n+]2ccc3c([nH]c4ccc(Br)cc43)c21.[Cl-]")
"lower"
>>> assigned_class("O=C1c2ccccc2-[n+]2cc(-c3ccccc3)c3c([nH]c4ccccc43)c21.[Cl-]")
"lower"

* * *

Property: pIC50; scope: individual molecules
- System: MRC-9 cells
- Assay notes: MTT assay, MRC-9 cells
- Format: cell-based, human
- Cond: Homo sapiens, MRC9; non-cancer cells; 48 h of treatment; mean ± SD
pIC50: −log10 of the molar value.
Assay metric: pIC50

>>> numeric_readout("O=C1c2ccc(Br)cc2-[n+]2ccc3c([nH]c4cccc(Br)c43)c21.[Cl-]")
5.68
>>> numeric_readout("Cc1c[n+]2c(c3[nH]c4ccccc4c13)C(=O)c1ccccc1-2.[Cl-]")
5.93
>>> numeric_readout("O=C1c2ccc(Br)cc2-[n+]2ccc3c([nH]c4ccc(Br)cc43)c21.[Cl-]")
4.90
>>> numeric_readout("O=C1c2ccccc2-[n+]2cc(-c3ccccc3)c3c([nH]c4ccccc43)c21.[Cl-]")
6.22
>>> numeric_readout("O=C1c2cc(Br)ccc2-[n+]2ccc3c([nH]c4c(Br)cc(Br)cc43)c21.[Cl-]")
4.52
>>> numeric_readout("O=C1c2cc(Br)ccc2-[n+]2ccc3c([nH]c4ccc(I)cc43)c21.[Cl-]")
4.50
>>> numeric_readout("O=C1c2ccccc2-[n+]2ccc3c([nH]c4ccc(I)cc43)c21.[Cl-]")
6.03
>>> numeric_readout("O=C1c2ccc(Br)cc2-[n+]2ccc3c([nH]c4ccccc43)c21")
5.64
>>> numeric_readout("O=C1c2cc(Br)ccc2-[n+]2ccc3c([nH]c4ccc(Cl)cc43)c21.[Cl-]")
4.44
>>> numeric_readout("Cc1cc2c([nH]c3ccccc32)c2[n+]1-c1ccccc1C2=O.[Cl-]")
5.53

Cited source for all entries: paper PMC8949187
